test_readout: melting point (°C)

Solved entries:
CCCCOC(=O)CCCCC(=O)OCCCC
-32.4
NS(=O)(=O)c1c(F)cc(F)cc1Br
126
CCCCN(CC)c1c([N+](=O)[O-])cc(C(F)(F)F)cc1[N+](=O)[O-]
66
Nc1cc(C(F)(F)F)c(Br)cc1F
36
ClC1CCCCC1
-44

(I) CC(C)[C@]12C/C(=N\NC(N)=O)[C@H](C)[C@H]1C2
(II) CCCCCC1=CCCC1
(III) CN(C)C(=S)N(C)C
Lookup: Arrange the 3 entries by melting point so the values rise. Please express your ranking as an ordered list of the labels.
Found: II, III, I

* * *

test_readout: melting point (°C)

Solved entries:
OCc1sc(-c2ccccc2)nc1-c1ccccc1
125
CC(=O)Oc1ccc2c(c1)CCC1C2CCC2(C)C(=O)C(OC(C)=O)CC12 (stereo not given)
180
Cc1cc(Br)ccc1C#N
64
C(=C(\Oc1ccccc1)c1nc2ccccc2s1)/c1ccc2c(c1)OCO2
170
CNC(C)Cc1ccc(O)cc1 (stereo not given)
161
Oc1ccc2c(c1)C13CCCCC1C(C2)N(CCc1ccccc1)CC3 (stereo not given)
244

(P) C1CCC(C(C2CCCCC2)C2CCCCC2)CC1
(Q) O=C(COC(=O)c1ccccc1)NC(CO)(CO)CO
Lookup: Smaller melting point value, P vs Q ? # reply format: chosen label
Found: P
(P: 48 °C, Q: 126 °C)

* * *

test_readout: melting point (°C)

Solved entries:
COc1ccc(S(N)(=O)=O)cc1
112
CC(=CC=C(C)C(=O)O)C(=O)O
221
NC(=O)NN=Cc1ccc2c(Br)cccc2c1
270

(P) COC(=O)C1=C(C(=O)OC)Cc2cc3c(cc2C1)CC(C(=O)OC)=C(C(=O)OC)C3
(Q) CCCCC(CC)COC(=O)CCCCCCCC(=O)OCC(CC)CCCC (configuration not stated)
(R) COC(=O)c1ccc(N)c(Cl)c1
Lookup: Arrange the 3 entries by melting point so the values rise. Please express your ranking as an ordered list of the labels.
Found: Q, R, P
(Q: -78 °C, R: 113 °C, P: 209 °C)

* * *

test_readout: melting point (°C)

CCOC(=O)C1=C(C)N=c2cc3c(cc21)=C(C(=O)OCC)C(C)=N3
342
CC(=O)OCCN(CCC#N)c1ccc(N=Nc2nc3ccc([N+](=O)[O-])cc3s2)cc1
167
O=P(O)(O)OC1C(O)C(O)C(O)C(O)C1O (stereo not given)
195
CCOC(=O)Oc1c(-c2ccccc2)[nH]c2cc([N+](=O)[O-])ccc12
170
C(C=C(c1ccccc1)c1ccccc1)=C(c1ccccc1)c1ccccc1
198
Cc1cc(C#N)ccc1F
55
Cn1ncc2c(NCCNC3=CC(=O)c4ccccc4C3=O)ncnc21
257
O=C(Oc1ccc(Cl)cc1Cl)c1ccc(C(=O)Oc2ccc(Cl)cc2Cl)cc1
217
COc1ccc(C(=O)Oc2ccc(/C=C/C(=O)c3ccccc3)cc2)cc1
156
Cc1cc(C)n2nc(N)c(/N=N/c3cc(Cl)c(Cl)cc3Cl)c2n1
295

(I) CC(=O)Nc1ccc(Br)c(F)c1
(II) CCCCCCCCCCCCOC(=O)CCSCCC(=O)OCCCCCCCCCCCC
(III) Clc1cccnc1Br
Lookup: # rank_down: sort by melting point, max first Please express your ranking as an ordered list of the labels.
Found: I, III, II

(A) COc1ccc2ccc(=O)oc2c1
(B) COC1=CC(C)C2CC3OC(O)CC4C(C)=C(OC)C(=O)C(C2(C)C1=O)C34C (stereo not given)
(C) Clc1ncc(Br)c(Cl)n1
Lookup: # rank_down: sort by melting point, max first Please express your ranking as an ordered list of the labels.
Found: B, A, C

(A) O=C(c1ccc(C(=O)C(Cl)(Cl)Cl)cc1)C(Cl)(Cl)Cl
(B) Nc1c(S/C=C/Cl)ccc2c1C(=O)c1ccccc1C2=O
(C) COc1cc(Cl)c(Cl)cc1Cl
(D) CC1(N)CCC(C(C)(C)N)CC1 (stereo not given)
Lookup: # rank_down: sort by melting point, max first Please express your ranking as an ordered list of the labels.
Found: B, A, C, D
(B: 180 °C, A: 121 °C, C: 77.5 °C, D: -45 °C)

* * *

test_readout: melting point (°C)

Solved entries:
CC(C)C1CCC2(C)CC(O)C3(C)CCC12O3 (stereo unspecified)
114
COc1c2c(cc3oc(=O)ccc13)OC(C)(C)C=C2
133

(a) O=c1cnn(C2OC(CO)C(O)C2O)c(=O)[nH]1 (stereo unspecified)
(b) FC1(F)C(Cl)=C(Cl)C(F)(F)C1(F)F
Lookup: Smaller melting point value, a vs b ? # reply format: chosen label
Found: b

* * *

test_readout: melting point (°C)

(A) Cc1ccc2cc(N)ccc2n1
(B) O=C=Nc1csc(-c2ccc(C(F)(F)F)cc2)n1
(C) O=c1c(=O)c2ccccc12
(D) O=c1cc[nH]c(=O)[nH]1
Lookup: # rank_down: sort by melting point, max first Please express your ranking as an ordered list of the labels.
Found: D, A, C, B

* * *

test_readout: melting point (°C)

Solved entries:
COC(=O)CC(=O)c1ccccc1Cl
25
CN(C)CCc1c[nH]c2cccc(OP(=O)(O)O)c12
224
O=C(O)c1cc(O)ccc1[N+](=O)[O-]
170

(1) COc1ccccc1N/N=C1\C(=O)N(CN2CCCCC2)N=C1C
(2) O=Cc1cc([N+](=O)[O-])ccc1Cl
(3) Cc1nc(O)ccc1[N+](=O)[O-]
Lookup: Arrange the 3 entries by melting point so the values rise. Please express your ranking as an ordered list of the labels.
Found: 2, 1, 3
(2: 79 °C, 1: 148 °C, 3: 235 °C)

* * *

test_readout: melting point (°C)

Nc1ccc2c(C(F)(F)F)cc(=O)oc2c1
223

(I) COc1ccc(Nc2[nH]c(=S)nnc2-c2ccccc2)cc1
(II) O=Cc1cc(Br)ccc1Br
Lookup: Smaller melting point value, I vs II ? # reply format: chosen label
Found: II

* * *

test_readout: melting point (°C)

COc1ccc(Br)c(C(N)=O)c1
160

(a) C1=CCC(c2ccccc2)(c2ccccc2)C=C1
(b) Cc1cc(C(=O)O)cc(Cl)n1
(c) ON=C(c1ccccc1)c1ccc(Cl)cc1
Lookup: Arrange the 3 entries by melting point so the values rise. Please express your ranking as an ordered list of the labels.
Found: a, c, b
(a: 57 °C, c: 133 °C, b: 193 °C)

(1) O=C(O)c1ccc(O)c(F)c1F
(2) OCc1cc2ccccc2s1
Lookup: Smaller melting point value, 1 vs 2 ? # reply format: chosen label
Found: 2
(2: 100 °C, 1: 207 °C)

* * *

test_readout: melting point (°C)

Solved entries:
CC1(C)OC(=O)C(=Cc2ccc(-c3ccc([N+](=O)[O-])cc3)o2)C(=O)O1
221
CCOC(=O)C=CN(C)C
17.5
Cc1csc(N)c1C(N)=O
174
N#Cc1cnc(N)s1
185
O=C(O)c1cccc(Cl)c1F
177

(A) Cc1cc(O)nc(N)n1
(B) COc1ccc(CO)cc1OCc1ccccc1
Lookup: Smaller melting point value, A vs B ? # reply format: chosen label
Found: B

* * *

test_readout: melting point (°C)

Clc1cc(Br)ccn1
19
CCCCOC(=O)CCC(=O)OCCCC
-29.2
O=C(O)c1cnc(Cl)c(Br)c1
172
O=C1OC(O)c2cc(Cl)c(Cl)cc21 (stereo not drawn)
180

(P) O=C(O)C#Cc1cc(Br)cc(/C=C/C(=O)O)c1
(Q) Cc1ccc([N+](=O)[O-])cc1Cl
(R) CCCCCCCCCCCC(N)=O
Lookup: # rank_down: sort by melting point, max first Please express your ranking as an ordered list of the labels.
Found: P, R, Q
(P: 161 °C, R: 110 °C, Q: 66.5 °C)

* * *

test_readout: melting point (°C)

CCC(C)CC(=O)O (racemic)
-41
O=C(O)c1ccc(Cl)cc1[N+](=O)[O-]
144
CC1=NNC(=O)C1(Br)Br
131
CC(Br)C(C)(C)Br (stereo not given)
11

(P) CCCCCCCCCCCCC(CCCCCCCCCCC)CCCCCCCCCCCC
(Q) O=C(OC(C(=O)c1ccc2c3c(cccc13)CC2)c1ccccc1)c1ccccc1 (stereo not given)
(R) CC(C)(C)c1ccccc1N
(S) CCn1c(=O)n(CC)c(=O)n(CC)c1=O
(T) CCCCCCCCCCCCCOCC1CO1 (stereo not given)
Lookup: # rank_down: sort by melting point, max first Please express your ranking as an ordered list of the labels.
Found: Q, S, P, T, R
(Q: 156 °C, S: 96.8 °C, P: 9.7 °C, T: 1.6 °C, R: -60 °C)

* * *

test_readout: melting point (°C)

COC(=O)c1ccccc1S(=O)(=O)NC(=O)Nc1nc(C)cc(C)n1
204

(1) CN(C)c1ccccc1N(C)C
(2) CCC#CCC
Lookup: For the two items 1 and 2 , which reports the higher melting point value? # reply format: chosen label
Found: 1
(1: 8.9 °C, 2: -103 °C)
